Reference source: ChEMBL document CHEMBL4118136

assay: Induction of apoptosis in human ECA109 cells assessed as viable cells level in absence of irradiation by Annexin V and propidium iodide staining based flow cytometry (reference value: 99.99%); type: cell-based, ECa-109; conditions: read-out: Activity

# structureString, viability
records = [
    ("C=Cc1c(C)c2cc3nc(c(CC(=O)OC)c4[nH]c(cc5nc(cc1[nH]2)C(C)=C5CC)c(C)c4C(=O)NCCc1ccccn1)[C@@H](CCC(=O)OC)[C@@H]3C", "89.8%"),
]
